Biological target: gp41 of HIV-1 strain NL4-3 (HIV-1 strain NL4-3)
Assay: cell-based or functional assay
Where no end group is shown, it is not given here. [ ]: non-standard residue; d: D form. APC = trans-3-aminopyrrolidine-4-carboxylic acid; ACPC = trans-2-aminocyclopentanecarboxylic acid; β3hR = N=C(N)NCCC[C@H](N)CC(=O)O; β3hT = C[C@@H](O)[C@H](N)CC(=O)O; β3hE = N[C@@H](CCC(=O)O)CC(=O)O; β3hA = C[C@H](N)CC(=O)O
readout.label: Inhibition of HIV-1 infectivity, IC50 (nM), NL4-3
Answers are plain numbers, in nM.

Answered examples (3):
>  <binder>
Ac-[β3hT]TWE[ACPC]WD[APC]AIA[β3hE]YA[ACPC]RIE[ACPC]LI[APC]AAQ[β3hE]QQ[β3hE]KNE[ACPC]AL[APC]EL-NH2 (Made from 9 by replacing the three β3-hArg residues with APC; also called foldamer 10) [α/β-peptide 10]

>  <recorded.measurement>
28

$$$$
>  <binder>
Ac-TTWEAWDRAIAEYAARIEALI[β3hR]AAQ[β3hE]QQ[β3hE]KNE[β3hA]AL[β3hR]EL (Chimera of α-peptide 3 and α/β-peptide 4; also called oligomer 5) [(α+α/β)-peptide 5]

>  <recorded.measurement>
10

$$$$
>  <binder>
Ac-[β3hT]TWE[β3hA]WD[β3hR]AIA[β3hE]YA[β3hA]RIE[β3hA]LI[β3hR]AAQ[β3hE]QQ[β3hE]KNE[β3hA]AL[β3hR]EL (also called oligomer 4) [α/β-peptide 4]

>  <recorded.measurement>
700

$$$$

Next, consider the following binder.
Give Inhibition of HIV-1 infectivity, IC50 (nM), NL4-3 for Ac-TTWEAWDRAIAEYAARIEALIRAAQEQQEKNEAALREL (also called T-2635; CHR α-peptide 3) [α-peptide 3]
5
